Protocol notes: Urinary excretion of flavanone-derived metabolites after single intake of lemon or orange extract (UPLC-ESI-QTOF-MS)
Format: in vivo, human
Run parameters: lemon extract, urine fraction 4-8 h, mean ± SD
Text: Secondary endpoints involved the evaluation of post-prandial changes in several biomarkers dealing with metabolism, inflammation, and oxidative stress after a high-fat-high-sugars meal. […] The metabolites hesperetin 7-O-glucuronide, hesperetin 3′-O-glucuronide, hesperetin 3-O-sulfate, naringenin 4′-O-glucuronide, and naringenin 7′-O-glucuronide were quantified with their corresponding standards. […] The parent phenolic compounds were quantified with their corresponding standards. […]
Recorded endpoint: Urinary excretion F2 (µg/mg creatinine)
Numbers only, in µg/mg creatinine.

Examples with answers:
Qu. What value of Urinary excretion F2 has been recorded for this entry: COc1ccc(C2CC(=O)c3c(O)cc(OC4OC(C(=O)O)C(O)C(O)C4O)cc3O2)cc1O (centres unmarked) [M7, Hesperetin 7-O-glucuronide]
Ans. 4.0

Qu. What value of Urinary excretion F2 has been recorded for this entry: O=C1CC(c2ccc(OC3OC(C(=O)O)C(O)C(O)C3O)cc2)Oc2cc(O)cc(O)c21 (centres unmarked) [M5, Naringenin 4′-O-glucuronide]
Ans. 1.7

Quick batch: Urinary excretion F2 for everything below.
1. O=C1CC(c2ccc(O)cc2)Oc2cc(OC3OC(C(=O)O)C(O)C(O)C3O)cc(O)c21 (centres unmarked) [M3, Naringenin 7-O-glucuronide]
2. COc1ccc(C2CC(=O)c3c(O)cc(O)cc3O2)cc1OS(=O)(=O)O (centres unmarked) [M14, Hesperetin 3′-O-sulfate]
3. O=C1CC(c2ccc(O)c(O)c2)Oc2cc(OC3OC(C(=O)O)C(O)C(O)C3O)cc(O)c21 (centres unmarked) [M1, Eriodictyol glucuronide-1]
4. O=C1CC(c2ccc(OC3OC(C(=O)O)C(O)C(O)C3O)c(O)c2)Oc2cc(O)cc(O)c21 (centres unmarked) [M4, Eriodictyol glucuronide-3]

Ans.
1: 2.6; 2: 4.3; 3: 9.6; 4: 33.8

Quick batch: Urinary excretion F2 for everything below.
1. COc1ccc(C2CC(=O)c3c(O)cc(O)cc3O2)cc1OC1OC(C(=O)O)C(O)C(O)C1O (centres unmarked) [M8, Hesperetin 3′-O-glucuronide]
2. O=C1CC(c2ccc(O)c(OC3OC(C(=O)O)C(O)C(O)C3O)c2)Oc2cc(O)cc(O)c21 (centres unmarked) [M2, Eriodictyol glucuronide-2]

Ans.
10.7
18.0

----------
Protocol notes: Urinary excretion of flavanone-derived metabolites after single intake of lemon or orange extract (UPLC-ESI-QTOF-MS)
Type: in vivo, human
Run parameters: lemon extract (3.1 g, 260 mg eriocitrin), urine fraction 0-4 h, mean ± SD
From the text: Secondary endpoints involved the evaluation of post-prandial changes in several biomarkers dealing with metabolism, inflammation, and oxidative stress after a high-fat-high-sugars meal. […] The metabolites hesperetin 7-O-glucuronide, hesperetin 3′-O-glucuronide, hesperetin 3-O-sulfate, naringenin 4′-O-glucuronide, and naringenin 7′-O-glucuronide were quantified with their corresponding standards. […] The parent phenolic compounds were quantified with their corresponding standards. […]
Recorded endpoint: Urinary excretion F1 (µg/mg creatinine)
Answers are plain numbers, in µg/mg creatinine.

Examples with answers:
Qu. What value of Urinary excretion F1 has been recorded for this entry: O=C1CC(c2ccc(O)c(O)c2)Oc2cc(OC3OC(C(=O)O)C(O)C(O)C3O)cc(O)c21 (centres unmarked) [M1, Eriodictyol glucuronide-1]
Ans. 3.2

Qu. What value of Urinary excretion F1 has been recorded for this entry: O=C1CC(c2ccc(O)cc2)Oc2cc(OC3OC(C(=O)O)C(O)C(O)C3O)cc(O)c21 (centres unmarked) [M3, Naringenin 7-O-glucuronide]
Ans. 1.0

Qu. What value of Urinary excretion F1 has been recorded for this entry: COc1ccc(C2CC(=O)c3c(O)cc(O)cc3O2)cc1OS(=O)(=O)O (centres unmarked) [M14, Hesperetin 3′-O-sulfate]
Ans. 1.9

Quick batch: Urinary excretion F1 for everything below.
1. O=C1CC(c2ccc(O)c(OC3OC(C(=O)O)C(O)C(O)C3O)c2)Oc2cc(O)cc(O)c21 (centres unmarked) [M2, Eriodictyol glucuronide-2]
2. COc1ccc(C2CC(=O)c3c(O)cc(O)cc3O2)cc1OC1OC(C(=O)O)C(O)C(O)C1O (centres unmarked) [M8, Hesperetin 3′-O-glucuronide]
3. O=C1CC(c2ccc(OC3OC(C(=O)O)C(O)C(O)C3O)c(O)c2)Oc2cc(O)cc(O)c21 (centres unmarked) [M4, Eriodictyol glucuronide-3]
4. COc1ccc(C2CC(=O)c3c(O)cc(OC4OC(C(=O)O)C(O)C(O)C4O)cc3O2)cc1O (centres unmarked) [M7, Hesperetin 7-O-glucuronide]
5. O=C1CC(c2ccc(OC3OC(C(=O)O)C(O)C(O)C3O)cc2)Oc2cc(O)cc(O)c21 (centres unmarked) [M5, Naringenin 4′-O-glucuronide]

Ans.
1: 6.4; 2: 2.1; 3: 9.4; 4: 1.2; 5: 0.8
